Tested on: DU-145 prostate
Assay: NCI-60 one-dose screen, 48 h (100 = growth as untreated, 0 = no growth, -100 = all killed)
Details: 10 µM unless noted
Compounds without any hit were thinned out: in the full panel of roughly 83,000, 20% have a hit.
Recorded growth by entry
Use % as the unit, but write only the number.

Query: Which value of growth has been reported for NS(=O)(=O)c1ccc(CCn2c(SCC(=O)N/N=C/c3cccnc3)nc3ccccc3c2=O)cc1 in the records?
Reply: 98.9

Query: Which value of growth has been reported for COCc1nc(NS(=O)(=O)c2ccc(N)cc2)nc(C)c1Br in the records?
Reply: 116

###

Test system: SK-MEL-28 melanoma
Assay: NCI-60 one-dose screen, 48 h (100 = growth as untreated, 0 = no growth, -100 = all killed)
Conditions: 10 µM unless noted
Procedure: Growth inhibition of the SK-MEL-28 human tumor cell line is measured as a screen for anti-cancer activity. Cells are grown in 96 well plates and exposed to the test compound for 48 hours. Compounds are tested at a single concentration, which is 10^-5 M for most compounds. The reported endpoint is percent growth (GI% or GIPRCNT), where numbers from 0 - 100% represent growth inhibition, and numbers from -100% - 0 represent cell death. For example, a value of 40 represents 60% growth inhibition. […]
About 83,000 compounds went through this panel and 20% of them were active in at least one assay; those are over-represented in the sample as a whole.
# binarize growth: threshold 60% inclusive, high side satisfied, low side not satisfied

Answered cases to consult:
O=C(/C=C/c1ccc(F)cc1)N1CCN(C(=O)/C=C/c2ccc(C(F)(F)F)cc2)CC1 :: satisfied
CCN1C(=O)N(CC)C2C1NC(=O)N2/N=C/C=C/c1ccccc1 (stereo not given) :: not satisfied
Cc1cc(O)ccc1Sc1ccccc1[N+](=O)[O-] :: satisfied
Cc1ccc(Nc2cccc3ccccc23)cc1 :: satisfied
O=C(CCCN1CCC(O)(c2ccc(Br)cc2)CC1)c1ccc(F)cc1 :: satisfied

Query: Answer whether growth of COc1cc(NCCC2CCCCN2)c2ncccc2c1OC (stereo not given) is greater than or equal to 60%.
Reply: satisfied

Query: Answer whether growth of CC1OC(n2c3ccccc3c3c4c(c5c6ccccc6[nH]c5c32)C(=O)N(CCN2CCOCC2)C4=O)CC(O)C1O (stereo not given) is greater than or equal to 60%.
Reply: satisfied

Query: Answer whether growth of Cc1ccc(NC(=O)c2cc(NCc3cc(O)ccc3O)ccc2O)cc1 is greater than or equal to 60%.
Reply: satisfied
